Data credit: PubChem BioAssay (NCATS)

test: qHTS of pediatric cancer cell lines to identify multiple opportunities for drug repurposing: Primary screen for A673 cells (AID 1347092); conditions: A673 Ewing sarcoma viability, CellTiter-Glo ATP luminescence, 48 h; series mostly up to 46 µM; also: nearly all actives have a fitted effect of over 45% in size
Results filed as inconclusive are left out. Active and inactive are the calls of the source. Calls follow the shape of the dose curve; as a rule, active = well fitted cell-killing curve with a large enough effect; inconclusive = small, poorly fitted or top-dose-only effect; inactive = no such curve, though single readings can be large or run the other way.
Outcome codes: active, inactive

| Compound | Cat |
| --- | --- |
| Cc1cc(C(C)(C)C)c(O)c(C)c1CC1=NCCN1 | inactive |
| CN(C)c1nc(N(C)C)nc(N(C)C)n1 | inactive |
| CN1CCN2c3ccccc3Cc3ccccc3C2C1 (configuration not stated) | inactive |
| Clc1ccc(C(c2ccccc2Cl)C(Cl)Cl)cc1 (configuration not stated) | active |
| Cc1ccccc1N1C(=O)c2cc(S(N)(=O)=O)c(Cl)cc2NC1C (configuration not stated) | inactive |
| Cn1ccc2cc3c(cc21)CCN3C(=O)Nc1cccnc1 | active |
| CCCNCC(O)COc1ccccc1C(=O)CCc1ccccc1 (configuration not stated) | inactive |

* * *

system: CP211; test: qHTS profiling for inhibitors of Plasmodium falciparum proliferation (AID 504749); also: nearly all actives have a fitted effect of over 60% in size; conditions: P. falciparum in erythrocytes, SYBR Green DNA, 72 h; series mostly up to 28.7 µM
Results filed as inconclusive are left out. The source made the active and inactive calls. Calls come from the whole dose curve; as a rule, active = well fitted inhibition curve with a large enough effect; inconclusive = small, poorly fitted or top-dose-only effect; inactive = flat fitted curve, though single readings scatter.
Outcome codes: 1 (yes) (active), 0 (no) (inactive)

| Molecule | Cat |
| --- | --- |
| CC(C)(Oc1ccc(C2CC2(Cl)Cl)cc1)C(=O)O (configuration not stated) | 0 (no) |
| NC12CC3CC(CC(C3)C1)C2 | 0 (no) |
| O=c1c(-c2ccc(O)cc2)coc2cc(O)cc(O)c12 | 0 (no) |
| NC(=O)OCC(COC(N)=O)c1ccccc1 | 0 (no) |
| Clc1ccccc1C(c1ccccc1)(c1ccccc1)n1ccnc1 | 1 (yes) |
| CN1C(C(=O)Nc2ccccn2)=C(O)c2ccccc2S1(=O)=O | 0 (no) |
| CC(C)Cc1ccc(C(C)C(=O)O)cc1 (configuration not stated) | 0 (no) |

* * *

assay: Quantitative High-Throughput drug screen in 47 multiple myeloma cell lines against the NCATS MIPE library collection: JIM1_ECACC cell viability assay (AID 1918964); settings: JIM1 myeloma viability, CellTiter-Glo ATP luminescence, 48 h; series mostly up to 45.8 µM
Records with an inconclusive call do not appear. Active and inactive are the calls of the source. The call rests on the fitted dose curve; in most records, active means well fitted cell-killing curve with a large enough effect; inconclusive means small, poorly fitted or top-dose-only effect, or effect the other way; inactive means no such curve, though single readings can be large or run the other way.
Outcome codes: 1.0 = active, 0.0 = inactive

| Compound | Cat |
| --- | --- |
| Cc1cn([C@H]2C[C@H](N=[N+]=[N-])[C@@H](CO)O2)c(=O)[nH]c1=O | 0.0 |
| CCOC(=O)c1ncn2c1CN(C)C(=O)c1cc(F)ccc1-2 | 0.0 |
| CC[C@@]1(O)C(=O)OCc2c1cc1n(c2=O)Cc2cc3c(CN(C)C)c(O)ccc3nc2-1 | 1.0 |
| O=C(c1ccc(F)cc1)C1CCN(CCn2c(=O)[nH]c3ccccc3c2=O)CC1 | 0.0 |
| Cn1cnc2c1c(=O)[nH]c(=O)n2C | 1.0 |
| CS(=O)(=O)CCNCc1ccc(-c2ccc3ncnc(Nc4ccc(OCc5cccc(F)c5)c(Cl)c4)c3c2)o1 | 1.0 |
| COc1ccc(C2CNC(=O)C2)cc1OC1CCCC1 (stereo not given) | 0.0 |
| Cc1ccc(C(=O)Nc2ccc(S(=O)(=O)O)c3cc(S(=O)(=O)O)cc(S(=O)(=O)O)c23)cc1NC(=O)c1cccc(NC(=O)Nc2cccc(C(=O)Nc3cc(C(=O)Nc4ccc(S(=O)(=O)O)c5cc(S(=O)(=O)O)cc(S(=O)(=O)O)c45)ccc3C)c2)c1 | 0.0 |
| CC(C)C(=O)Nc1ccc([N+](=O)[O-])c(C(F)(F)F)c1 | 1.0 |
| CN(CCOc1ccc(NS(C)(=O)=O)cc1)CCc1ccc(NS(C)(=O)=O)cc1 | 0.0 |
| CCN1CCCC1CNC(=O)c1cc(S(=O)(=O)CC)c(N)cc1OC (stereo not given) | 0.0 |
| Clc1ccccc1C(c1ccccc1)(c1ccccc1)n1ccnc1 | 1.0 |
| Nc1nc2c(ncn2COC(CO)CO)c(=O)[nH]1 | 1.0 |
| COc1ccc2[nH]cc(CCNC(C)=O)c2c1 | 1.0 |
| O=C(Nc1ccc([N+](=O)[O-])cc1Cl)c1cc(Cl)ccc1O | 1.0 |
| CN(C)CCCN1c2ccccc2CCc2ccc(Cl)cc21 | 1.0 |
| Clc1ccc2c(c1)C(N1CCNCC1)=Nc1ccccc1O2 | 0.0 |
| C[C@@H]1CC(=O)NN=C1c1ccc(NN=C(C#N)C#N)cc1 | 0.0 |
| CC#C[C@]1(O)CC[C@H]2[C@@H]3CCC4=CC(=O)CCC4=C3[C@@H](c3ccc(N(C)C)cc3)C[C@@]21C | 1.0 |
| COC(=O)Nc1nc2ccc(C(=O)c3cccs3)cc2[nH]1 | 1.0 |
